Cited source: the supplement of paper PMC12636428

system: Saccharomyces cerevisiae; assay: transcriptional activation domain activity (GFP:mCherry ratio, weighted mean of sorted bins, harmonized to initial dataset scale) (arbitrary fluorescence ratio units); higher = stronger transcriptional activation; details: beta-estradiol 1 µM; induction time 4 h
Parameter threshold = 50000. Response is true (1) when transcriptional activation domain activity meets or exceeds it, else false (0).

Examples with answers:
LYVIIFPILYFSLLLFYFFSSCGGVGWWAVGWHGVLCFFVLLGWVGLGGCCLC ... false (0)
MGSGDTFFYWKLFSFSLSLLTRFSPLYFGWPFLKTIPLFMYFFLCRVLPLFLM ... true (1)
LRAMVMAAPYDGDINITFTKHRSKIYIRPNNTLSELLSNGWIKFLAIILFIYP ... false (0)

transcriptional activation domain activity >= 50000 for FFHVTIRCASQGCGIAFGILGFQNTNVFLAYLILGAEGYFTLVLCVFRFLISW ?
true (1)

transcriptional activation domain activity >= 50000 for MHHELLRPILRLGHLMWTICFWMRRIMINAESPYRKTILHVRRSNWLFRRIIT ?
true (1)

transcriptional activation domain activity >= 50000 for PAPSAAPAPAKEEDDDDEKEEAGGKADAKKKKKKKGKKDDEPAPAAAPAAAGK ?
false (0)

transcriptional activation domain activity >= 50000 for KSKKRKTGEQSDEDAVAAKKRKKSAGKKVAGEEKPKKARKSQAPAEAAGGRKS ?
false (0)

transcriptional activation domain activity >= 50000 for MEDAGDDATPATKKGKGMKKRKKGEESDGENEKPAKTPKTKLKLTNKTPKEAS ?
false (0)

transcriptional activation domain activity >= 50000 for DRLSLRFTLAISLTDVIRAIAILIYSHFQVDDWRCSLLSFSLYWLTLLYLFLT ?
false (0)

====

test system: Saccharomyces cerevisiae; experiment: transcriptional activation domain activity (GFP:mCherry ratio, weighted mean of sorted bins, harmonized to initial dataset scale) (arbitrary fluorescence ratio units); higher = stronger transcriptional activation; conditions: beta-estradiol 1 µM; induction time 4 h
Parameter threshold = 50000. Response is satisfied when transcriptional activation domain activity meets or exceeds it, else not satisfied.

Examples with answers:
SFSLLALSFFFLHVLFSLIIAPCVWFWFFSWLWFWLDLSSPRTYCIHIWLIHP ... not satisfied
WRVLSVFAVFNLGPYVFSLILYSSNAFLYTQWLSFTAVCLISLANVILFRFLL ... not satisfied
VLYPLWPLKMRQGVYYLSWGFLCLLGLFFLMAIFRVILFCITYFVVSPGLWLF ... not satisfied

transcriptional activation domain activity >= 50000 for SRKESRKEKSESKPVKAGKKEGKEKGKGKEGKEGKADGEKAAKPKKEKKEKKE ?
not satisfied

transcriptional activation domain activity >= 50000 for YDIVCQWWRNLVDRLKELPPLVRISLILELCQFVIPKMHIHSHTLLCQLLFSL ?
satisfied

transcriptional activation domain activity >= 50000 for MANVRFFVGLQRLFPFLAFHHLLMLCHIIVIILLSILLAGCSSYSSMINVYIL ?
satisfied

transcriptional activation domain activity >= 50000 for CIGAMVLIVLWAGGVCILVLVMCIPLEGVWDRRVNAKCIPHMTVMWYFNGVFN ?
satisfied

transcriptional activation domain activity >= 50000 for QEQEQEGMELGIKEGPADPRCKTCGRTEGTRKCTGCGRVRYCGRECQKKDWKV ?
not satisfied

transcriptional activation domain activity >= 50000 for KAEPKKEAAKGPRNVSGVTVDDKKEGKGKAAKKGDRVEMRYIGKLKSGKVFDS ?
not satisfied

transcriptional activation domain activity >= 50000 for TSAFGGGNTGGGLFGQQNKPTTGFGSSPAPAGGLFGGGSGTTTSTPAFGAAAA ?
not satisfied

transcriptional activation domain activity >= 50000 for ISLGDFIVTLNYLFCYFLMQAPSLKLKPTSLFFFFLCIWLDFVLCLLILLRVA ?
not satisfied

transcriptional activation domain activity >= 50000 for TSPKKKGRAAAKGKKGADKENAEAKTEVEKKASEDEFKDLEPNGDSKTNGAAA ?
not satisfied

transcriptional activation domain activity >= 50000 for TPEFHGQADVDTGILTLKKDEDIRDHPDAARFAEESKAARITKRGAREGLEHV ?
not satisfied

transcriptional activation domain activity >= 50000 for ICHYKGSLIGKHFKSLSQVMPFIIYDLVPSTVLNAWTIMGKLIVLIWHTKILN ?
not satisfied

transcriptional activation domain activity >= 50000 for MQAGIHNVLFHFRNKWWIQIIGSGLPYFVLLAGRGLMCIFLFLIFRLRRCLCV ?
satisfied

transcriptional activation domain activity >= 50000 for MMSMFWGWHGQRNGVFSGVLGFGILLVTWFFFFFKFSPHILLIISVYGHFGFF ?
satisfied

transcriptional activation domain activity >= 50000 for QENTLPATQANSSLLETYPIVQSNPVTTTIKESPNSIMAGWDNWESDMVWRDV ?
satisfied

transcriptional activation domain activity >= 50000 for KKQEERKEGYRRKVEENKEKREGREKREKDEFWRREGKKRRYQEGDGAGAGAG ?
not satisfied

transcriptional activation domain activity >= 50000 for APPPREGGARGGRGGRGRGEFRGGEGRGRGEGRESRGGEGRGRGGEGRGEFRG ?
not satisfied

transcriptional activation domain activity >= 50000 for SHFLPLLLFLSLSFILFSFPFILPFSLISLFSYFFLPFLHISTLFHSYFSFLL ?
not satisfied
